Source listed as patent US20150132305A1.

# Assayed target: T1, Cad-11 37-mer peptide linked to BSA (encompasses the Cad-11 immunogen) (human)
# T1 sequence (peptide, linked to BSA): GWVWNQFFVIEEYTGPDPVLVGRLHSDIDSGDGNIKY
# Test protocol: ELISA, BSA-coupled 37-mer cadherin peptide coated at 500 ng/ml, A450
The following binders are shown together with reported EC50 (read off the curve) values.
Measurement name: EC50 (read off the curve) (µg/mL)

binder="SDP021 humanized anti-Cad-11 EC1 antibody (Vκ1/VH2) (antibody, IgG4, V domains shown) VH: EVQLVQSGAEVKKPGASVKISCKASGYSFTGYFMNWVKQAPGQGLEWIGRINPYTGDTFYNQKFKGRATLTVDKSTSTAYMELSSLRSEDTAVYYCGRLGSRYWYFDVWGQGTTVTVSS VL: DVLMTQTPLSSPVTLGQPASISCRSSQSIIHSNGNTYLEWYLQKPGQSPQLLIYKVSNRFSGVPDRFTGSGSGTDFTLKISRVEAEDVGVYYCFQGSHVPWTFGQGTKLEIK" measurement_name="EC50 (read off the curve)" scale_unit=µg/mL reported_measurement=0.06
binder="SDP011 humanized anti-Cad-11 EC1 antibody (Vκ1/VH1) (antibody, IgG4, V domains shown) VH: EVQLVQSGPELKKPGASVKISCKASGYSFTGYFMNWVKQAHGQGLEWIGRINPYTGDTFYNQKFKGRATLTVDKSSSTAYMELVSLSSEDSAVYYCGRLGSRYWYFDVWGQGTTVTVSS VL: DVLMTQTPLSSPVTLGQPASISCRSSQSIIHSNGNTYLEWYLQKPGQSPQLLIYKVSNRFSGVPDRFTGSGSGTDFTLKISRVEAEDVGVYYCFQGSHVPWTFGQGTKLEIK" measurement_name="EC50 (read off the curve)" scale_unit=µg/mL reported_measurement=0.07
binder="SDP051 humanized anti-Cad-11 EC1 antibody (Vκ1/VH5) (antibody, IgG4, V domains shown) VH: EVQLVQSGAEVKKPGASVKVSCKASGYSFTGYFMNWVRQAPGQGLEWIGRINPYTGDTFYNQKFKGRVTITVDKSTSTAYMELSSLRSEDTAVYYCGRLGSRYWYFDVWGQGTTVTVSS VL: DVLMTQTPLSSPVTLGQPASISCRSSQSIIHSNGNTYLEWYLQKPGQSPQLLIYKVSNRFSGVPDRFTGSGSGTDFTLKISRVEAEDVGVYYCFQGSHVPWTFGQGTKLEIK" measurement_name="EC50 (read off the curve)" scale_unit=µg/mL reported_measurement=0.04
